Test system: Key Grass and Sedge Weeds as well as Grass Crops
experiment.notes: Post-emergent Test II herbicidal activity (Table 6)
Assay type: in vivo
setup.conditions: post-emergence, 336 h, ZEAMX: maize, corn (Zea mays), application rate 140 g ai/ha, read-out: Visual Growth Reduction (%) 14 Days After Application, ZEAMX
Overview of reported pest or weed control at 140 g/ha across a group of compounds:

{"smiles.text": "COC(=O)c1nc(-c2ccc(Br)cc2)c(C)c(N)c1Cl", "pest or weed control at 140 g/ha": "75 to 84%"}
{"smiles.text": "C=Cc1c(C(=O)OC)nc(-c2ccc(C(F)(F)F)c(F)c2F)c(F)c1N", "pest or weed control at 140 g/ha": "0 to 29%"}
{"smiles.text": "COC(=O)c1nc(-c2ccc(I)c(F)c2)nc(N)c1OC", "pest or weed control at 140 g/ha": "0 to 29%"}
{"smiles.text": "COC(=O)c1nc(-c2cc(F)c(C#N)cc2F)c(F)c(N)c1Cl", "pest or weed control at 140 g/ha": "0 to 29%"}
{"smiles.text": "COC(=O)c1nc(-c2cc(F)c(C)cc2F)cc(N)c1Cl", "pest or weed control at 140 g/ha": "0 to 29%"}

Qu. Fetch value of pest or weed control at 140 g/ha on Key Grass and Sedge Weeds as well as Grass Crops for COC(=O)c1nc(-c2ccc(I)c(F)c2F)cc(N)c1Cl .
Ans. 75 to 84%

Qu. # lookup: Key Grass and Sedge Weeds as well as Grass Crops pest or weed control at 140 g/ha, key = COc1c(N)nc(-c2ccc(I)c(F)c2)nc1C(=O)O
Ans. 45 to 59%

Qu. Answer briefly: pest or weed control at 140 g/ha recorded on Key Grass and Sedge Weeds as well as Grass Crops for Nc1cc(-c2ccc(I)cc2F)nc(C(=O)O)c1Cl
Ans. 75 to 84%

----------
Test system: Key Broadleaf Weed and Crop Species
experiment.notes: Post-emergent Test II herbicidal activity (Table 5)
Format: in vivo
setup.conditions: post-emergence, 336 h; CHEAL: lambsquarters (Chenopodium album); 140 g ai/ha; post-emergent; 14 days after application; read-out: Visual Growth Reduction (%) 14 Days After Application CHEAL
measure: pest or weed control at 140 g/ha

Field: example entries. Status: answers known.
{"smiles.text": "C=Cc1c(N)nc(-c2ccc(C(F)(F)F)c(F)c2)nc1C(=O)OC", "pest or weed control at 140 g/ha": "45 to 59%"}
{"smiles.text": "COC(=O)c1nc(-c2ccc(OC(F)(F)F)cc2)nc(N)c1OC", "pest or weed control at 140 g/ha": "0 to 29%"}
{"smiles.text": "COc1c(N)nc(-c2ccc(Br)c(F)c2)nc1C(=O)O", "pest or weed control at 140 g/ha": "95 to 100%"}
{"smiles.text": "COC(=O)c1nc(-c2ccc(C#N)c(F)c2)c(C)c(N)c1Cl", "pest or weed control at 140 g/ha": "95 to 100%"}
{"smiles.text": "COc1c(N)nc(-c2ccc(OC(F)(F)F)cc2)nc1C(=O)O", "pest or weed control at 140 g/ha": "0 to 29%"}
{"smiles.text": "C=Cc1c(C(=O)O)nc(-c2ccc(Br)cc2)c(F)c1N", "pest or weed control at 140 g/ha": "95 to 100%"}
{"smiles.text": "C#Cc1ccc(-c2nc(N)c(OC)c(C(=O)OC)n2)cc1", "pest or weed control at 140 g/ha": "60 to 74%"}
{"smiles.text": "COC(=O)c1nc(-c2cc(F)c(C(F)(F)F)cc2F)cc(N)c1Cl", "pest or weed control at 140 g/ha": "95 to 100%"}

Qu. Provide measured pest or weed control at 140 g/ha value, entry: COC(=O)c1nc(-c2ccc(OC(F)F)cc2)c(Cl)c(N)c1Cl
Ans. 30 to 44%
